Molecular target: human TLR7 (Homo sapiens, UniProt Q9NYK1)
Construct: host or cells: HEK293 (HEK-Blue hTLR7)
Sequence (Q9NYK1 27-1049): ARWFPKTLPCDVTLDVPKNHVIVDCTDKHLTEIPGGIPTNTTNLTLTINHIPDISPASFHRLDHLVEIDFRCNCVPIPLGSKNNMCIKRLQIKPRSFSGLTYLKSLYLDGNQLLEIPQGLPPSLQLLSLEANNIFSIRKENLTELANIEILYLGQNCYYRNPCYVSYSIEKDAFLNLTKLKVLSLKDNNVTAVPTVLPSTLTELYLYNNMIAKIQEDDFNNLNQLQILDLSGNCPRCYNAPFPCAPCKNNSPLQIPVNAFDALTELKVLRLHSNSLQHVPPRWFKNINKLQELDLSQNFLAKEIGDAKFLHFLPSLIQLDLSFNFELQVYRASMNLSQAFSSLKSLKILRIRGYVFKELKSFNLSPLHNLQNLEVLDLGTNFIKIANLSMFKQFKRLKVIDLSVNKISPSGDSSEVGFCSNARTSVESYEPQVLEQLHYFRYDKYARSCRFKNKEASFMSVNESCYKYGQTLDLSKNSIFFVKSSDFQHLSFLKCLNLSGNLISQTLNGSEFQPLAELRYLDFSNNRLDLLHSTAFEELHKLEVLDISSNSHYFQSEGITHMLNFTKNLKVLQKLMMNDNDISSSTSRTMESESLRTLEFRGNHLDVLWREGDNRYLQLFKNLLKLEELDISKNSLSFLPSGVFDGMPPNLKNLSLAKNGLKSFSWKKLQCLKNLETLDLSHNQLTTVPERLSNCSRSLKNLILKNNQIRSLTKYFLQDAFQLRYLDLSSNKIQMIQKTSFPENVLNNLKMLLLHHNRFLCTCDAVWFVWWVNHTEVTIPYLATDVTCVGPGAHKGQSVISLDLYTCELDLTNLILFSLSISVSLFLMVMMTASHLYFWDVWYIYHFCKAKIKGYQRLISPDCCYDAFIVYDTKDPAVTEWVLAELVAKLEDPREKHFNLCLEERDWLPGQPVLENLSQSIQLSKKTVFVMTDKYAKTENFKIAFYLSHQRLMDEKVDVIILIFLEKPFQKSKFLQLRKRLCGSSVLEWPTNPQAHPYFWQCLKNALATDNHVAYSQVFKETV
Experiment: HEK293-Blue-hTLR-7 cells assay
Assay type: cell-based
Conditions: HEK293-Blue-hTLR7 cells, R848 stimulation, 20 hrs; read-out: HEK/hTLR7 IC50
Threshold 10 nM. IC50 below it: Condition met. IC50 at it or above: Condition not met.

The following compounds have reported results that may help.
Cc1cc(N2CC[C@@H](c3ncc(N4CC(C)(N)C4)cc3C)[C@H](C)C2)c2cnn(C)c2n1: Condition met
CO[C@@H]1CN(c2cnc([C@@H]3CCN(c4cc(C)nc5c4cnn5C)C[C@H]3C)c(C)c2)C[C@H]1N: Condition not met
Cc1cc(N2CCC(c3ncc(N4CCNCC4)cc3C)[C@H](C)C2)c2cnn(C)c2n1 (single isomer, unassigned) [Example 25]: Condition met

Q: Record `Cc1cc(N2CCC(c3ncc(N4CC[C@@H](N)[C@@H](F)C4)cc3C)CC2)c2cnn(C)c2n1` : is its IC50 strictly below 10 nM?
Result: Condition not met

Q: Quick check: IC50 of Cc1cc(N2CCC(c3cnc(N4CCNCC4)cc3C)[C@H](C)C2)c2cnn(C)c2n1 (single isomer, unassigned) [Example 20] under 10 nM?
Result: Condition not met

Q: Determine whether this compound shows IC50 lower than 10 nM (ties excluded): `COC[C@H]1CN(c2ccc([C@H]3CCN(c4cc(C)nc5c4cnn5C)C[C@@H]3C)nc2)CCN1`
Result: Condition met

Q: Problem: For the compound `COC[C@H]1CN(c2cnc(C3CCN(c4cc(C)nc5c4cnn5C)CC3)c(C)c2)CCN1` , is IC50 under 10 nM?
Result: Condition not met
